Values were extracted from patent US20110281938.

molecular target: TFPI (tissue factor pathway inhibitor, full-length) (Homo sapiens, UniProt P10646 SEQ:1-276); test: competition; meets binding-competition criterion; details: tags: American Diagnostica 4500PC/4900PC, E. coli expressed
Sequence (P10646 29-304): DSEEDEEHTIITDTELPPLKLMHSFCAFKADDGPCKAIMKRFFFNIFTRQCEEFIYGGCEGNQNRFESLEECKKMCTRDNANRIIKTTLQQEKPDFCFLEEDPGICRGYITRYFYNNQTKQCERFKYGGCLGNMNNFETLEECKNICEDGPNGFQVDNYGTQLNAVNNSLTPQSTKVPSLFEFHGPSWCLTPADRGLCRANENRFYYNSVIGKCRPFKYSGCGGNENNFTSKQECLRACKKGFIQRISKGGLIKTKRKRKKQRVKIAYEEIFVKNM
READOUT_KIND: binding signal

GGAAUAUACUUGGCUCGUUAGGUGCGUAUACA (mixed, 2'-OMe A/G/U and mC31, other C 2'-deoxy, 3' idT) [ARC33179] | ≤ 5 fold IC50 of ARC17480

Please state binding signal for every binder in the list that follows.
1. GGAAUAUACUUGGCUCGUUAGGUGCGUAUUUA (mixed, 2'-OMe A/G/U, 2'-deoxy C, 3' idT) [ARC33178]
2. GUAAUAUACUUGGCUCGUUAGGUGCGUAUAUA (mixed, 2'-OMe A/G/U, 2'-deoxy C, 3' idT) [ARC33150]
3. GGAAUAUACUUGGCUCGUUAGGUGCGUAUAUU (mixed, 2'-OMe A/G/U, 2'-deoxy C, 3' idT) [ARC33180]
4. UGAAUAUACUUGGCUCGUUAGGUGCGUAUAUA (mixed, 2'-OMe A/G/U, 2'-deoxy C, 3' idT) [ARC33149]
5. GGAACAUACUUGGCUCGUUAGGUGCGUAUAUA (mixed, 2'-OMe A/G/U and mC5, other C 2'-deoxy, 3' idT) [ARC33153]

# output
1. ≤ 5 fold IC50 of ARC17480
2. ≤ 5 fold IC50 of ARC17480
3. ≤ 5 fold IC50 of ARC17480
4. ≤ 5 fold IC50 of ARC17480
5. ≤ 5 fold IC50 of ARC17480
